Data provenance is PubChem BioAssay AID720543.

- target.entity: (Lyso)-N-acylphosphatidylethanolamine lipase (Mus musculus) (UniProt Q8VD66)
- Sequence (Q8VD66 whole entry, looked up): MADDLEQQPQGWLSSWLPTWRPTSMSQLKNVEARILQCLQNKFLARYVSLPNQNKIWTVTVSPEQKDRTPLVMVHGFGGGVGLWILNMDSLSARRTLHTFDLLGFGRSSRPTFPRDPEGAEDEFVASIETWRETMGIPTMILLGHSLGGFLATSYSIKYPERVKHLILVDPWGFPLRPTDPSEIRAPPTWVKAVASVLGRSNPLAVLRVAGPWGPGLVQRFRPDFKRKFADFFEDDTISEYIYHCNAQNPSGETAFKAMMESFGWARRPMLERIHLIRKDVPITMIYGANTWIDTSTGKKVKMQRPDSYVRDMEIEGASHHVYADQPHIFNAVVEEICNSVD
- assay.overview: ABHD4 inhibitors, primary screen, biochemical, fluorescence polarization, mouse (AID 720543);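 note: 0% = plate median of compound wells and 100% = S159A mutant with DMSO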
- recorded.conditions: purified mABHD4, FP-Rh probe fluorescence polarization; at 8.92 µM
The whole screen tested about 370,000 compounds, of which about 2,000 (0.54%) were called active.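 Rule for the calls: active = inhibition exceeding the mean over every tested compound plus 3 SD (cut at about 30% in these data); inactive = the rest.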 This is one part of a sample in which actives are shown more often than they occur.
Outcomes: yes (1) (active), no (0) (inactive)

{"compound": "COc1cc(C(=O)Nn2c(O)c(C3=c4ccccc4=NC3=O)sc2=S)ccc1O", "class.name": "yes (1)"}
{"compound": "O=C(CSc1nc2c(c(=O)[nH]1)CCCC2)N1CCCCC1", "class.name": "no (0)"}
{"compound": "CC(C)(C)C(=O)OCc1nc(-c2ccc(O)c(O)c2)cs1", "class.name": "yes (1)"}
{"compound": "O=C(c1ncn2c1c(=O)[nH]c1ccccc12)N1CCc2ccccc2C1", "class.name": "no (0)"}
{"compound": "COc1cc(C(=S)NC2CCCCC2)ccc1O", "class.name": "no (0)"}
{"compound": "COCCn1c(N)c(NCc2ccccc2)c(=O)[nH]c1=O", "class.name": "no (0)"}
{"compound": "CCOC(=O)CSc1nnc(CNC(=O)c2ccco2)n1-c1ccc(F)cc1", "class.name": "no (0)"}
{"compound": "Cc1[nH]nc2c1C(c1ccc(Br)cc1)NC2=O (stereo unspecified)", "class.name": "no (0)"}
{"compound": "CCOCCOCCC(C(=O)O)P(=O)(c1ccccc1)c1ccccc1 (stereo unspecified)", "class.name": "no (0)"}
{"compound": "O=C(Nc1ccc(Br)cc1)OCCN1C(=O)CCC12CCC(c1ccccc1)CC2 (stereo unspecified)", "class.name": "no (0)"}
{"compound": "CC(CNc1ccc([N+](=O)[O-])c2cccnc12)Nc1c([N+](=O)[O-])cc(C(F)(F)F)cc1[N+](=O)[O-] (stereo unspecified)", "class.name": "no (0)"}
{"compound": "CCOC(=O)[C@]12CCCC3=C1N(CCC3)C(=O)[C@@H](CC(=O)NCc1cccs1)C2", "class.name": "no (0)"}
{"compound": "COc1ccc(-n2c(COc3ccccc3)nnc2SCC(=O)Nc2ccc3c(c2)OCO3)cc1", "class.name": "no (0)"}
{"compound": "CC(Oc1ccc(Cl)cc1)c1ccnn1S(C)(=O)=O (stereo unspecified)", "class.name": "no (0)"}
{"compound": "Cc1cc2nc3c(=O)n(Cc4ccccc4)c(=O)[nH]c3nc2cc1N", "class.name": "yes (1)"}
{"compound": "CN(C)S(=O)(=O)c1cccc(C(=O)N/N=C\\c2ccco2)c1", "class.name": "no (0)"}
{"compound": "CCCCC(=O)N[C@@H]1CC[C@@]23CCCN2C(=O)CCC[C@H]3[C@H]1C", "class.name": "no (0)"}
{"compound": "COc1ccc(C(=O)NC(=S)N2CCCCC2c2cccnc2)cc1OC (stereo unspecified)", "class.name": "no (0)"}
{"compound": "COc1cc(/C=C/C(=O)n2cnc3ccccc32)cc(OC)c1OC", "class.name": "no (0)"}
{"compound": "COCCCN(C(=O)CSCc1ccc(C)cc1)c1c(N)n(Cc2ccccc2)c(=O)[nH]c1=O", "class.name": "no (0)"}
{"compound": "O=c1[nH]c2ccccc2n2c(-c3ccccc3)nnc12", "class.name": "yes (1)"}
